- system.name: T1, PUF4 RNA-binding domain (Saccharomyces cerevisiae, UniProt P25339 537-888)
- T1 sequence: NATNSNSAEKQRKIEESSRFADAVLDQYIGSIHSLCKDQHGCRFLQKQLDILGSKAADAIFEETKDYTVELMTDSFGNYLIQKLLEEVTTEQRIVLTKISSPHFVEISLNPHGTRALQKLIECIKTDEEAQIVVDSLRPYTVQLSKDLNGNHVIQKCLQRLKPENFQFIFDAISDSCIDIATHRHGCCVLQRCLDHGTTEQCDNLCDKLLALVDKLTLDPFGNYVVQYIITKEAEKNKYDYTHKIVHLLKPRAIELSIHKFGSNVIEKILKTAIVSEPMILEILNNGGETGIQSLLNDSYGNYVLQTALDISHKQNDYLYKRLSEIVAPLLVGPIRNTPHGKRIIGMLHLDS
- protocol.notes: Mg; RNA-MaP; 20 mM Na-HEPES pH 7.4, 30 mM KOAc, 0.75 mM MgCl2, 0.1% Tween-20, 5% glycerol, 0.1 mg/mL BSA, 2 mM DTT; 25 C; 0.0125-409.6 nM protein
- run.conditions: tags: N-His6-TEV cleaved; C-SNAP kept, Cy3B-labelled; label: tethered on chip by stalled RNA polymerase
pKd: −log10 of the molar value.
# pKd listing for each entry below
measured.endpoint: pKd

binder="UCUCUUUGUAUGCCUCUCUU (ssRNA) [Ic_S1_P3E.1_K3.1_C3.1_H3.1_A3.1_[A6G]_F3.1_[T7C]_[A8C]_T3.1]" measured_number=5.76
binder="Id_ii_S4_P4E.2_K4.1_C4.2_[T-1G]_H4.1_A4.1_F4.1_T4.2_[G10A]_[T11G] (ssRNA) RNA: UUUGACAACUGAUCGUUCUUUCUCGUGUAUAUUAAGUUCUUUCUCGAUCAGUUGUCUUU" measured_number=8.86
binder="UCUCUUUAUAUAUAUUACAUCUCUU (ssRNA) [Id_ii_S1_P4E.3_K4.2_C4.2_[C-2T]_[T-1A]_H4.2_A4.1_F4.1_T4.2_[G10C]_[T11A]]" measured_number=7.54

Every entry's value here was drawn from paper PMC9352680.
